system: HepG2; experiment: Solid tumour and haematological malignancy assay (CellTiterGlo); assay type: cell-based; conditions: Homo sapiens, HepG2, 72 h, read-out: MI %
Record form. Attribute: Emax. Fill in for each entry.
Please answer using the number first and the unit second.

[
  {
    "Compound": "Nc1nc(F)nc2c1ncn2[C@@H]1O[C@H](CO)C[C@H]1O [2-F-Cordycepin, 3′deoxy-2-fluoroadenosine, reference compound]",
    "Result": "82%"
  }
]

Please go through the list and note Emax for each compound.
1. C[C@H](NP(=O)(OC[C@@H]1C[C@H](O)[C@H](n2cnc3c(N)nc(F)nc32)O1)Oc1cccc2ccccc12)C(=O)OCc1ccccc1 (some centres unmarked)
2. Nc1ncnc2c1ncn2[C@@H]1O[C@H](COP(=O)(NCC(=O)OCc2ccccc2)Oc2ccccc2)C[C@H]1O (some centres unmarked)
3. CCCCCCOC(=O)[C@H](C)NP(=O)(OC[C@@H]1C[C@@H](O)[C@H](n2cnc3c(N)nc(F)nc32)O1)Oc1ccccc1 (some centres unmarked)
4. C[C@H](NP(=O)(OC[C@@H]1C[C@@H](O)[C@H](n2cnc3c(N)nc(F)nc32)O1)Oc1ccccc1)C(=O)OCc1ccccc1 (mixture of isomers)

1. 83%
2. 99%
3. 82%
4. 74%

###

I'd be grateful if you could share measured pIC50 for these entries.
Tested on: THP-1
Experiment: Solid tumour and haematological malignancy assay (CellTiterGlo)
Type: cell-based
Conditions: Homo sapiens, THP-1, 72 h, read-out: IC50 (absolute IC50)
Experimental: In vitro viability assay were performed to assess the effects of compounds on cell viability in selected cell lines over 72 hr using the CellTiterGlo (CTG, Promega-G7573) assay. The tests were performed in duplicates with treatment of compounds at 9 points, 3.16 folds titration in 96 well plates over ˜72 hr. […] All compound solubilities were checked and recorded again, then the plates were transferred to CO2 tissue culture incubator immediately and incubated for 3 days. […]
pIC50: −log10 of the molar value.

Examples with answers:
[
  {
    "Molecule": "CCOC(=O)CCc1ccccc1OP(=O)(N[C@@H](C)C(=O)OCc1ccccc1)OC[C@@H]1C[C@@H](O)[C@H](n2cnc3c(N)ncnc32)O1 (some centres unmarked) [F]",
    "Test target": "THP-1",
    "Measured property": "pIC50",
    "Result": "4.00 to 4.82"
  },
  {
    "Molecule": "C[C@H](NP(=O)(OC[C@@H]1C[C@@H](O)[C@H](n2cnc3c(N)ncnc32)O1)Oc1cccc2ccccc12)C(=O)OCc1ccccc1 (some centres unmarked) [B]",
    "Test target": "THP-1",
    "Measured property": "pIC50",
    "Result": "4.00 to 4.82"
  },
  {
    "Molecule": "C[C@H](NP(=O)(OC[C@@H]1CC(O)[C@H](n2cnc3c(N)ncnc32)O1)Oc1ccccc1)C(=O)OCc1ccccc1 (some centres unmarked) [Compound A]",
    "Test target": "THP-1",
    "Measured property": "pIC50",
    "Result": "4.00 to 4.82"
  },
  {
    "Molecule": "COC(=O)C(C)(C)NP(=O)(OC[C@@H]1C[C@@H](O)[C@H](n2cnc3c(N)ncnc32)O1)Oc1cccc2ccccc12 (some centres unmarked) [E]",
    "Test target": "THP-1",
    "Measured property": "pIC50",
    "Result": "< 4.00"
  }
]

Shift focus to the following entry.
# get_value(readout= pIC50, system= THP-1) for Nc1ncnc2c1ncn2[C@@H]1O[C@H](COP(=O)(NCC(=O)OCc2ccccc2)Oc2ccccc2)C[C@H]1O (some centres unmarked) [C] 4.00 to 4.82
